targetOrTestSystem: Platelet-activating factor acetylhydrolase 2, cytoplasmic (Homo sapiens) (UniProt Q99487)
assayProcedure: inhibition of cytoplasmic PAF acetylhydrolase 2 – biochemical, fluorescence polarization, human, primary screen (AID 492956);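 also: inhibitors block probe labeling of enzyme so polarization drops; 0% = enzyme with DMSO and 100% = wells lacking PAFAH2 protein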
measurementConditions: recombinant PAFAH2, FP-rhodamine activity probe, at 3.39 µM, stronger effect = higher value
In all, about 340,000 compounds went through this assay and about 3,300 (0.97%) were called active. The list comes from a sample in which actives are over-represented; it also holds close analogues and randomly drawn compounds.
Please provide measured inhibition for the entries that follow.
Record the value in %, omitting the unit from your answer.

// query For `COc1ccc(N(C(=O)c2cccnc2)S(=O)(=O)c2ccc(OC)c(OC)c2)cc1` , what is its reported inhibition?
// result -3.27

// query Would you mind doing `O=C(c1cccnc1)N(c1cc2sc(=O)oc2c2ccccc12)S(=O)(=O)c1ccccc1` as well?
// result 36.6

// query Would you mind doing COc1ccc(SCc2noc(C(=O)NCC3CCCO3)c2C(=O)O)cc1 (stereo unspecified) as well?
// result 0.7

// query Would you mind doing `CCOc1ccc2nc(/N=C/c3nc(-c4ccccc4)oc3O)sc2c1` as well?
// result 2.86

// query Would you mind doing `Cc1ccc(S(=O)(=O)N2CCN(CC(=O)N/N=C/c3cc([N+](=O)[O-])ccc3Cl)CC2)cc1` as well?
// result -3.59

// query Would you mind doing CC(N=Cc1nc(-c2ccccc2)oc1O)c1ccccc1 (stereo unspecified) as well?
// result 21

// query Would you mind doing `O=C(OCC(=O)N1CCCCC1)c1ccc(OC(F)(F)F)cc1` as well?
// result 5.16

// query Would you mind doing `O=C(Cn1nnc2ccccc2c1=O)NCc1ccc(Cl)cc1` as well?
// result 4.44

// query Would you mind doing O=C(NCc1ccc(F)cc1)C(c1ccccc1)N(C(=O)c1csnn1)C1CC1 (stereo unspecified) as well?
// result 2.95

// query Would you mind doing `Cc1cc(=O)n(C)c(=O)n1CCCNc1ccccc1` as well?
// result -0.72

// query Would you mind doing `Oc1oc(-c2ccccc2Br)nc1/C=N/c1ccccn1` as well?
// result 68

###

targetOrTestSystem: Platelet-activating factor acetylhydrolase 2, cytoplasmic (Homo sapiens) (UniProt Q99487)
assayProcedure: inhibition of cytoplasmic PAF acetylhydrolase 2 – biochemical, fluorescence polarization, human, primary screen (AID 492956);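 also: inhibitors block probe labeling of enzyme so polarization drops; 0% = enzyme with DMSO and 100% = wells lacking PAFAH2 protein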
measurementConditions: recombinant PAFAH2, FP-rhodamine activity probe, at 3.39 µM
The campaign covered roughly 340,000 compounds. About 3,300 (0.97%) were called active.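 How the source made its calls: active means inhibition above the mean over all tested compounds plus 3 SD (cut at about 30% in these data); inactive means the rest.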 For the sample, actives were picked, then their nearest neighbours and some compounds at random.
Select the matching outcome among active, inactive

// query Recorded test outcome, item `O=C(COC(=O)CCc1c[nH]c(=O)[nH]1)Nc1ccccc1Cl`
// result inactive

// query Would you mind doing `O=C(COC(=O)c1ccc[nH]c1=O)Nc1ccc2c(c1)OC(F)(F)O2` as well?
// result inactive

// query Would you mind doing `COc1ccc(NC(=O)c2cccc(Cl)c2)c[n+]1[O-]` as well?
// result inactive

// query Would you mind doing `CC(C)(C)NC(=O)c1cccc(NC(=O)Cc2ccc(Br)cc2)c1` as well?
// result inactive

// query Would you mind doing `O=C(COC(=O)c1ccco1)NCc1ccc(Cl)cc1` as well?
// result inactive

// query Would you mind doing `Cc1cc(C)cc(C(=O)OCC(=O)NCCNC(=O)COC(=O)c2cc(C)cc(C)c2)c1` as well?
// result inactive

// query Would you mind doing O=C(NCc1cc(C(F)(F)F)cc(C(F)(F)F)c1)C1CC(c2cccc(F)c2)=NO1 (configuration not stated) as well?
// result inactive

// query Would you mind doing O=C1c2ccccc2NC(c2ccc(-c3cccc(Cl)c3)o2)N1O (configuration not stated) as well?
// result inactive

// query Would you mind doing `Cc1cc(C(=O)OCC(=O)c2c(N)n(C)c(=O)n(C)c2=O)c(C)o1` as well?
// result inactive

// query Would you mind doing `COc1cc(NC(=O)COC(=O)c2cc(S(=O)(=O)N3CCOCC3)ccc2F)cc(OC)c1` as well?
// result inactive

// query Would you mind doing `Cc1ccc(NC(=O)COC(=O)CNC(=O)c2ccc(Cl)cc2Cl)cc1S(=O)(=O)N1CCOCC1` as well?
// result inactive

// query Would you mind doing `COc1ccc(S(=O)(=O)N2CCOCC2)cc1NC(=O)CSc1ncnc2ccccc12` as well?
// result inactive

// query Would you mind doing COc1ccc(S(=O)(=O)N2CCOCC2)cc1NC(=O)CC1CC2CCC1C2 (configuration not stated) as well?
// result active

// query Would you mind doing `COc1ccc(S(=O)(=O)N2CN(CCc3ccc(OC)c(OC)c3)c3nc4ccccc4nc32)cc1` as well?
// result inactive

// query Would you mind doing `O=C1NCC(c2ccccc2)(c2ccccc2)C(=O)N1` as well?
// result inactive

// query Would you mind doing `Cc1ccc(/C=C/C(=O)O)cc1S(=O)(=O)N1CCC(Cc2ccccc2)CC1` as well?
// result inactive

// query Would you mind doing O=C(O)CC(c1ccccc1F)N1Cc2ccccc2C1=O (configuration not stated) as well?
// result inactive

// query Would you mind doing `Cc1ccc(NC(=O)COC(=O)C2CC2)cc1S(=O)(=O)N1CCOCC1` as well?
// result active

// query Would you mind doing `Cc1cnc(C(=O)OCC(=O)Nc2ccc(Cl)cc2Cl)cn1` as well?
// result inactive

// query Would you mind doing `COc1ccc(S(=O)(=O)N2CCCCCC2)cc1NC(=O)Cc1ccc(OC)c(OC)c1` as well?
// result inactive

// query Would you mind doing `O=C1NN(c2ccccc2)C(=O)/C1=C/c1ccc(-c2cccc(C(=O)O)c2)o1` as well?
// result inactive

// query Would you mind doing `Cc1cccc(NC(=O)/C=C/c2ccc3c(c2)OCO3)n1` as well?
// result inactive
